Test system: BDF1 mice, P388 leukemia ip, median survival T/C
Assay: NCI In Vivo Anticancer Drug Screen. Data for tumor model P388 Leukemia (intraperitoneal) in B6D2F1 (BDF1) mice
Details: endpoint: median survival time; dose: 12.5 mg/kg/injection; schedule: Q01DX009 (ip); vehicle: Klucel (hydroxypropylcellulose) (HPC); higher = longer survival
Toxic doses and inconclusive results are not listed.
OBSERVABLE: T/C

Before answering, review these 5 worked examples.
COMPOUND	MEASURED
COc1ccc(OC)c(/C=C/[N+](=O)[O-])c1	108 % of control
Nc1c(Cl)c(Cl)nc(C(=O)O)c1Cl	95 % of control
COc1cc2c(cc1OC)-c1cc3cc(OC)c(OC)cc3c(C)[n+]1CC2	106 % of control
COc1ccc(C(=O)/C=C/c2ccccc2)c(O)c1CC=C(C)C (tested in a mixture with another compound)	107 % of control
ClC(Cl)(Cl)c1ccc(C(Cl)(Cl)Cl)cc1	90 % of control

Prompt: Please list T/C recorded for the compound "CCOC(=O)CC(C)=O.[Cu+2]"
Response: 90 % of control

* * *

Test system: BDF1 mice, P388 leukemia ip, median survival T/C
Assay: NCI In Vivo Anticancer Drug Screen. Data for tumor model P388 Leukemia (intraperitoneal) in B6D2F1 (BDF1) mice
Conditions: endpoint: median survival time; dose: 50.0 mg/kg/injection; schedule: Q04DX003 (ip); vehicle: saline; higher = longer survival
Inconclusive results and toxic doses are left out.
OBSERVABLE: T/C

COMPOUND	T/C
CCC(O)Cc1c[nH]c(=O)[nH]c1=O (configuration not stated)	104 % of control
CC#CCOCC1CN(C)C(=O)O1 (configuration not stated)	100 % of control
C1CCC2C(C1)NC1CCCCC12 (configuration not stated)	109 % of control
COC(OC)C12CC(OC(=O)N1)C(C)CO2 (configuration not stated)	98 % of control
CCCCCCCCCCCCCC[S+](C)C	104 % of control
CCOP(=O)(OCC)OCCCN(CC)CC	100 % of control

Prompt: Provide T/C, tested on BDF1 mice, P388 leukemia ip, median survival T/C, for "O=c1[nH]c2nc(Cl)c(Cl)nc2[nH]1" .
Response: 113 % of control

Prompt: Provide the reported T/C (system: BDF1 mice, P388 leukemia ip, median survival T/C) for "Cn1c(O)c(C=N)c(=O)n(C)c1=O"
Response: 100 % of control

Prompt: GET T/C where system = BDF1 mice, P388 leukemia ip, median survival T/C and item = "O=c1[nH]c2cc(Cl)ccc2c(CCl)c1Cl"
Response: 104 % of control

Prompt: Tell me T/C of "CC[S+](CC)CC" when tested on BDF1 mice, P388 leukemia ip, median survival T/C.
Response: 109 % of control

Prompt: Under BDF1 mice, P388 leukemia ip, median survival T/C: report T/C of "CC(C)(C)C#C[P+](C#CC(C)(C)C)(Cc1ccccc1)c1ccccc1" .
Response: 107 % of control

Prompt: Provide the reported T/C (system: BDF1 mice, P388 leukemia ip, median survival T/C) for N#CN1CC(C(=O)N2CCCCC2)C=C2c3cccc4[nH]cc(c34)CC21 (configuration not stated)
Response: 106 % of control

Prompt: Enter measured T/C, system BDF1 mice, P388 leukemia ip, median survival T/C, for the compound shown: "O=C(O)CS(=O)(=O)c1ccccc1"
Response: 109 % of control

Prompt: Name the recorded T/C of "COc1ccc(-c2csc(=[N+]3CCCCC3)s2)cc1" , assay system BDF1 mice, P388 leukemia ip, median survival T/C.
Response: 87 % of control

Prompt: Write down measured T/C (BDF1 mice, P388 leukemia ip, median survival T/C) for this compound. "NOCc1ccc(CON)cc1"
Response: 87 % of control

Prompt: GET T/C | system: BDF1 mice, P388 leukemia ip, median survival T/C | item: CC(NC(=O)OCc1ccccc1)C(=O)NC(CC(=O)O)C(=O)O (configuration not stated)
Response: 100 % of control

Prompt: Fill in: T/C on BDF1 mice, P388 leukemia ip, median survival T/C, entry CNC(C)Cc1ccccc1OC (configuration not stated)
Response: 92 % of control

Prompt: State, for BDF1 mice, P388 leukemia ip, median survival T/C, measured T/C of the compound listed here: "CC(C)(C)N1CCOCC1"
Response: 90 % of control

* * *

System: BDF1 mice, P388 leukemia ip, median survival T/C
Assay: NCI In Vivo Anticancer Drug Screen. Data for tumor model P388 Leukemia (intraperitoneal) in B6D2F1 (BDF1) mice
Settings: endpoint: median survival time; dose: 3.12 mg/kg/injection; schedule: Q01DX009 (ip); vehicle: saline; higher = longer survival
Toxic doses and inconclusive results are not listed.
OBSERVABLE: T/C

COMPOUND	SUBJECT_OF_TEST	MEASURED
Nc1nc(N)c2cc(N3CCCC3c3ccc(Cl)cc3)ccc2n1 (stereo unspecified)	BDF1 mice, P388 leukemia ip, median survival T/C	109 % of control

Prompt: Return reported T/C. Input compound: "CCC1CC[N-]CC1.CCC1CC[N-]CC1.[Cl][Pt+2]([Cl])([Cl])[Cl]"
Response: 107 % of control

Prompt: Provide measured T/C value, entry: "CC1CC[N-]CC1.CC1CC[N-]CC1.CC1CC[N-]CC1.CC1CC[N-]CC1.O=C([O-])C(=O)[O-].O=C([O-])C(=O)[O-].[Nb+5].[O-][O-].[O-][O-].[Pt+4]"
Response: 102 % of control

Prompt: Indicate its recorded T/C; the compound in question is "CN=C(N)c1ccc(N=C(N)c2ccc(-c3ccc(C(N)=Nc4ccc(C(N)=NC)cc4)cc3)cc2)cc1"
Response: 123 % of control

Prompt: Using the record for "c1cc[n+](CCSCCSCC[n+]2ccccc2)cc1" , state its measured T/C.
Response: 105 % of control

Prompt: Identify measured T/C corresponding to CC(=O)OC1C=CCC2C(=O)C34CC=CC(OC(C)=O)C3(C(=O)c3ccccc3C4=O)C(=O)C12 (stereo unspecified)
Response: 95 % of control

* * *

System: BDF1 mice, P388 leukemia ip, median survival T/C
Assay: NCI In Vivo Anticancer Drug Screen. Data for tumor model P388 Leukemia (intraperitoneal) in B6D2F1 (BDF1) mice
Conditions: endpoint: median survival time; dose: 50.0 mg/kg/injection; schedule: Q01DX009 (ip); vehicle: saline with Tween-80
Toxic doses and inconclusive results are not listed. How the source made its calls: active means survival T/C of 150% or more; inactive means T/C below 125% in these data.
Your response should consist of one outcome taken from Y for active, N for inactive

MOLECULE	CLASS_ASSIGNMENT
O=C(NC(=O)c1c(F)cccc1F)Nc1cccc(C(F)(F)F)c1	N

Prompt: Hello, I am checking results. What call was entered for "Cc1ccc(S(=O)(=O)Nc2ccccc2)c(CC(O)(c2ccccc2)c2ccccc2)c1" ?
Response: N

Prompt: Write down the call the test reported for this molecule. Item: Cc1ccc(S(=O)(=O)OCC2C3CCC2C3)cc1 (configuration not stated)
Response: N

Prompt: What call does the record list for "C(#CCN1CCCC1)CCCN1CCCC1" ?
Response: N

Prompt: Identify the outcome logged in this assay for the molecule shown: "CN(C)P(=S)(N(C)C)N1CCC1"
Response: N

Prompt: Could you kindly confirm the outcome this assay logged for "CC(=O)OCC(=O)[C@@]1(O)CC[C@H]2[C@@H]3CCC4=CC(=O)CC[C@]4(C)[C@H]3C(=O)C[C@@]21C" ?
Response: N

Prompt: Recorded test outcome, item "Cc1cc(S(=O)(=O)c2ccc(Cl)c(C)c2)ccc1Cl"
Response: N

Prompt: Entry "CS(=O)(=O)OCCCCOS(C)(=O)=O" : call = ?
Response: N

Prompt: Would you mind telling me which call this test gave C=CCOCC(O)CN(CCCC)CCCC (configuration not stated) ?
Response: N

Prompt: Recorded test call requested for "CCO/C=C1\SC(=S)N(c2ccc(O)cc2)C1=O"
Response: N

Prompt: // outcome(item) with item = "CCOC(=O)c1cnn(-c2ccccc2)c1N"
Response: Y

Prompt: Recorded test call requested for "O=CN(c1ccccc1)c1ccccc1"
Response: N

* * *

Test system: BDF1 mice, P388 leukemia ip, median survival T/C
Assay: NCI In Vivo Anticancer Drug Screen. Data for tumor model P388 Leukemia (intraperitoneal) in B6D2F1 (BDF1) mice
Details: endpoint: median survival time; dose: 50.0 mg/kg/injection; schedule: Q04DX003 (ip); vehicle: saline with Tween-80; higher = longer survival
Toxic doses and inconclusive results are not listed.
# T/C per record follows

COMPOUND	T/C
COc1cc2c(cc1OC)C(OC)N(C)c1c-2ccc2cc3c(cc12)OCO3 (stereo not drawn)	231 % of control
CCOC(=O)C(Br)C(Br)c1ccccc1 (stereo not drawn)	91 % of control
CCCCC(=O)NN	110 % of control
CS(=O)(=O)OCCCCCCCCCOS(C)(=O)=O	113 % of control
CSCC(NC(=O)OCc1ccccc1)C(=O)O (stereo not drawn)	95 % of control
CC(C)CC(Br)C(=O)NCC(=O)NC(Cc1ccccc1)C(=O)O (stereo not drawn)	95 % of control
c1ccc(COC2CN3CCC2CC3)cc1 (stereo not drawn)	100 % of control
S=c1[nH]nc2n1NC(c1ccoc1)=NN2	100 % of control

Prompt: Indicate the recorded T/C value for this compound: "O=C(CBr)c1ccc(/C=C/c2ccc(Cl)cc2)cc1"
Response: 109 % of control

Prompt: Supply recorded T/C for "O=C(O)CNC(CSCc1ccccc1)CSCc1ccccc1" here.
Response: 106 % of control

Prompt: Look up T/C of O=C1CC(N2C(=O)c3ccccc3C2=O)C(=O)N1 (stereo not drawn) and report it.
Response: 103 % of control

Prompt: Return the recorded T/C value; entry: "CC(=O)c1ccc(NC(=O)C(F)(F)F)cc1"
Response: 111 % of control

Prompt: Check the records and state T/C for "CC(=O)C(C)(CCC#N)CCC#N"
Response: 104 % of control
